tested on: tet-on competent MLL/AF9+Nras AML; experiment: Pooled negative selection RNAi screening (deep sequencing); format: cell-based, mouse; settings: deep sequencing reads, On Dox compared to T0
Fold depletion in AML reference
Returns: string containing the numeric result and its unit.

# Molecule, Fold depletion in AML
measured = [
    ("Adam23.5211: shRNA, SEQ ID NO: 89 (nucleic acid) TGCTGTTGACAGTGAGCGCTACGACCACGTCAGTTACAAATAGTGAAGCCACAGATGTATTTGTAACTGACGTGGTCGTATTGCCTACTGCCTCGGA", "40.11 Fold"),
    ("Nrp1.2022: shRNA, SEQ ID NO: 154 (nucleic acid) TGCTGTTGACAGTGAGCGACACAAGGTTCATCAGGATCTATAGTGAAGCCACAGATGTATAGATCCTGATGAACCTTGTGGTGCCTACTGCCTCGGA", "13.60 Fold"),
    ("Slc11a1.307: shRNA, SEQ ID NO: 178 (nucleic acid) TGCTGTTGACAGTGAGCGCAACATTGAGTCCGACCTTCAATAGTGAAGCCACAGATGTATTGAAGGTCGGACTCAATGTTTTGCCTACTGCCTCGGA", "9.52 Fold"),
]

The record that follows has no Fold depletion in AML shown yet.
What value of measured Fold depletion in AML is listed for Klf5.581: shRNA, SEQ ID NO: 135 (nucleic acid) TGCTGTTGACAGTGAGCGCTCCGATAATTTCAGAGCATAATAGTGAAGCCACAGATGTATTATGCTCTGAAATTATCGGAATGCCTACTGCCTCGGA ?
9.37 Fold
